The values you see were collected from patent US20190053492A1.

The entries below come with measured pest or weed control at 500 g/ha values attached.
Test system: Spodoptera frugiperda
assay info: Spodoptera frugiperda spray test
Type: in vivo
experimental setup: Spodoptera frugiperda, foliar, 168 h; application rate 500 g/ha, after 7 days, maize leaf discs; read-out: efficacy (caterpillars killed)
// note: answer is a bare numeric in %

Worked set:
N#Cc1ccc(CNC(=O)c2cc(-c3ccc(OC(F)(F)F)cc3)cc(NC(=O)C3CC3)n2)cc1	100
N#Cc1ccc(CNC(=O)c2cc(-c3ccc(C(F)(F)C(F)(F)F)c(F)c3)cc(NC(=O)C3CC3)n2)cc1	100
N#Cc1ccc(CNC(=S)c2cc(-c3ccc(OC(F)(F)F)cc3)cc(NC(=S)C3CC3)n2)cc1	100
N#Cc1ccc(CNC(=O)c2cc(-c3ccc(C(F)(F)F)s3)cc(NC(=O)C3CC3)n2)cc1	100
N#Cc1ccc(CNC(=O)c2cc(-c3ccc(SC(F)(F)C(F)F)cc3)cc(NC(=O)C3CC3)n2)cc1	100

Requested read-out pest or weed control at 500 g/ha, target or system Spodoptera frugiperda, entry CC(C)ONC(=O)c1cc(-c2ccc(OC(F)(F)F)cc2)cc(NC(=O)C2CC2)n1
100
